System: biotinyl-Ile-oxazolone
TEST_DETAILS: self-aminoacylation, catalytic enhancement (BIO) (fold over background); higher = more active; k-Seq, kA / k0A0; sequences stand for … in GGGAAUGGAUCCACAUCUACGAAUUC…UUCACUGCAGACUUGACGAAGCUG
Variants at the floor of the assay were thinned out.
Each entry gets NOT MET if its self-aminoacylation stays under 1, and MET if its self-aminoacylation is 1 or above.

Use these answered entries as a reference point.
INSERT INTO measurements (input_sequence, target_or_test_system, class_name) VALUES
  ('AUUCACCUCGGUCAUCCGGUG [Fam2.2 aminoacylation ribozyme variant]', 'biotinyl-Ile-oxazolone', 'MET'),
  ('AUUCACCUAGGUUGUCGGGUG [Fam2.2 aminoacylation ribozyme variant]', 'biotinyl-Ile-oxazolone', 'MET'),
  ('CCACCCUGCAAGCAAUCGGUC [Fam1B.1 aminoacylation ribozyme variant]', 'biotinyl-Ile-oxazolone', 'MET');

Attention now turns to another entry.
Quick check: does ACUCACCUAGGUCUUCGGGUG [Fam2.2 aminoacylation ribozyme variant] have self-aminoacylation greater than or equal to 1?
MET
